Hello, the source for this data is patent US20210292330A1, in case you need it.

target: KRAS 4B G12C protein (Homo sapiens, UniProt P01116, G12C); construct: This protein contained 188 amino acids in total, including an N-terminal 6-Histidine tag; made in house; host or cells: E. coli BL21; assay: In vitro covalent adduct formation (CAF) assay by LC-MS; type: binding; conditions: 10 minutes; compound 10 μM, protein 5 μM, 22° C.; percentage of protein bound by the compound
Strictly below 20% in CAF (10 minutes/60 minutes) at 10 micromolar: 10 minutes: label 1. Otherwise: label 0.

input: Is the reported CAF (10 minutes/60 minutes) at 10 micromolar: 10 minutes for C=C(F)C(=O)N1CCN(c2nc(OC[C@@H]3CCCN3C)nc3c2CN(Cc2ccccc2C(F)(F)F)C3)C[C@@H]1CC#N strictly below 20%?
output: label 0

input: Is the reported CAF (10 minutes/60 minutes) at 10 micromolar: 10 minutes for C=CC(=O)N1C[C@H](C)N(c2nc(OC[C@@H]3CCCN3C)nc3c2CN(Cc2cc(O)ccc2F)C3)C[C@H]1C strictly below 20%?
output: label 1

input: Is the reported CAF (10 minutes/60 minutes) at 10 micromolar: 10 minutes for C=C(F)C(=O)N1CCN(c2nc(OC[C@@H]3CCCN3C)nc3c2CN(C2CCCc4cccc(Cl)c42)C3)C[C@@H]1CC#N (stereo partly shown) strictly below 20%?
output: label 0

input: Is the reported CAF (10 minutes/60 minutes) at 10 micromolar: 10 minutes for C=C(F)C(=O)N1CCN(c2nc(OC[C@@H]3CCCN3C)nc3c2CN(Cc2c(CC)ccc(O)c2OC)C3)C[C@@H]1CC#N strictly below 20%?
output: label 0

input: Is the reported CAF (10 minutes/60 minutes) at 10 micromolar: 10 minutes for C=CC(=O)N1C2COCC1CN(c1nc(OC[C@@H]3CCCN3C)nc3c1CN(Cc1cc(O)ccc1Cl)C3)C2 strictly below 20%?
output: label 0

New cases:
input: Is the reported CAF (10 minutes/60 minutes) at 10 micromolar: 10 minutes for C=CC(=O)N1CCN(c2nc(OC[C@@H]3CCCN3C)nc3c2CN(Cc2cccc4ncoc24)C3)C[C@@H]1CC#N strictly below 20%?
output: label 1
